Target: ATR (Homo sapiens, UniProt Q13535)
Construct: obtained from HeLa nuclear extract (CIL Biotech, Mons, Belgium) by immunoprecipitation with rabbit polyclonal antiserum raised to amino acids 400-480 of ATR; host or cells: HeLa nuclear extract
Sequence (Q13535 whole entry, the tested form may be a part): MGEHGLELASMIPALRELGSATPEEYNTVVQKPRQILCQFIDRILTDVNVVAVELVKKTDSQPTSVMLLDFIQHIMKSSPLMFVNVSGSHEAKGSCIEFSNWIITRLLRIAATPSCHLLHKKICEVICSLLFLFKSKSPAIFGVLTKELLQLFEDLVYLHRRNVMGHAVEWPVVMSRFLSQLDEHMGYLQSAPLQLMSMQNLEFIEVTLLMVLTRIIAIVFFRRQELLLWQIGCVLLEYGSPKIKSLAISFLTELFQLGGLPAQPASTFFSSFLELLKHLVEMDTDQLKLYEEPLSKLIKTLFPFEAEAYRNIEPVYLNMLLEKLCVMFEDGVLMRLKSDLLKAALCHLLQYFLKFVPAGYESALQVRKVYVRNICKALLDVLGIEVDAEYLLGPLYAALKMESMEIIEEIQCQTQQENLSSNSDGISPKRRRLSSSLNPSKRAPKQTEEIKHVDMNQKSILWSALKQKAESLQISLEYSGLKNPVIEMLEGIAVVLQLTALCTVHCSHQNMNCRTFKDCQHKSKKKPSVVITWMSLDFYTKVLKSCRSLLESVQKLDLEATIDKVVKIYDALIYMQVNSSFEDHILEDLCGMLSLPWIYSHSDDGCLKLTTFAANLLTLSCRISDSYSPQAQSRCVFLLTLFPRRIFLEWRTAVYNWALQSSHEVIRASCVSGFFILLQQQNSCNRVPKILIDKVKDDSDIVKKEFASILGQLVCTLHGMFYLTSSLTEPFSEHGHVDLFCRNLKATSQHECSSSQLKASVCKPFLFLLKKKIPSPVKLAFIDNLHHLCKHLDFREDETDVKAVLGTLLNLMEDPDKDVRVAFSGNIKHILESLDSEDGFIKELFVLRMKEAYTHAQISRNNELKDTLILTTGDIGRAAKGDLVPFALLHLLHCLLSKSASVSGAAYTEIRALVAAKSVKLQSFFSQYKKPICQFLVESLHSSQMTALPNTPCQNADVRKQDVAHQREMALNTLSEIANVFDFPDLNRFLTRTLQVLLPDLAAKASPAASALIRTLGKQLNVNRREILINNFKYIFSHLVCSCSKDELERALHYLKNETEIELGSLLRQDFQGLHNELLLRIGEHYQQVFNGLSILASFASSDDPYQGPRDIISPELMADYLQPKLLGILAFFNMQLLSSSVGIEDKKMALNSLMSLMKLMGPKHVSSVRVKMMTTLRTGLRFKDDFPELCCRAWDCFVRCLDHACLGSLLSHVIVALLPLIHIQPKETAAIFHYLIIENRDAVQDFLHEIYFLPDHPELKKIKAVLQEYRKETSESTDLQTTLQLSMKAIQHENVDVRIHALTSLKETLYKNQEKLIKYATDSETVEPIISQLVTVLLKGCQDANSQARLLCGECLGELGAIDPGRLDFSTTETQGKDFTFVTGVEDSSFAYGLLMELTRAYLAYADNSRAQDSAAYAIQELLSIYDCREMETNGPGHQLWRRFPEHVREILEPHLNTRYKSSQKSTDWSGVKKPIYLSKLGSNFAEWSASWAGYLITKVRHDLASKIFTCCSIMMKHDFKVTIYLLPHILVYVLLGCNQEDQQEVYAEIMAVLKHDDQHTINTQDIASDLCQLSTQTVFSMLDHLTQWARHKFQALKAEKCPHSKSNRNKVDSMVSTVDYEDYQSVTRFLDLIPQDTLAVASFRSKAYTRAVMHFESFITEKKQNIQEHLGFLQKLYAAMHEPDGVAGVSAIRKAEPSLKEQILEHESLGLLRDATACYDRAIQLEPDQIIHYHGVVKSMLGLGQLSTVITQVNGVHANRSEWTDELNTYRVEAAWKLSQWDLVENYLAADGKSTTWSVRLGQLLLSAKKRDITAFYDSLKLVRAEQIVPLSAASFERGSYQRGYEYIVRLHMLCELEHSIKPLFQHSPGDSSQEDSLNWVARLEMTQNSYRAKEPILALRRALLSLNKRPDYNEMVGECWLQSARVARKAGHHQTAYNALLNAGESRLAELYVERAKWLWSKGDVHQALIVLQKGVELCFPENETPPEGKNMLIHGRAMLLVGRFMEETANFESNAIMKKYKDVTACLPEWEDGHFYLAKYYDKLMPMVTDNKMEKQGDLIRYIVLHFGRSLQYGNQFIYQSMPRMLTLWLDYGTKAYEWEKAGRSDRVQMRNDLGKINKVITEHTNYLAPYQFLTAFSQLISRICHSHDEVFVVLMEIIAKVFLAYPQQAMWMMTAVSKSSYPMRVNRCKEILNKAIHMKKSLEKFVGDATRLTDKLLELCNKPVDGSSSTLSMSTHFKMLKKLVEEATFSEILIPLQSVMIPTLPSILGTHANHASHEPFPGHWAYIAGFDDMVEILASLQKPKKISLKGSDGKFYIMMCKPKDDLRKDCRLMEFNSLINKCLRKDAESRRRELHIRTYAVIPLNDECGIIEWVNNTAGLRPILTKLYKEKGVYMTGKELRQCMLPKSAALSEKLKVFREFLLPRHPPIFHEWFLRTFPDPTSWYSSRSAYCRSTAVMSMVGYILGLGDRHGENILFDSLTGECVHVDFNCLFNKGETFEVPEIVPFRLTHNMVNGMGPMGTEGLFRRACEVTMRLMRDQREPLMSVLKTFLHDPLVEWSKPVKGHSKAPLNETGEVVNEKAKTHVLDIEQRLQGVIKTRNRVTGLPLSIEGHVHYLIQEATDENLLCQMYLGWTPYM
Sequence (Q8WXE1 whole entry partner, the tested form may be a part): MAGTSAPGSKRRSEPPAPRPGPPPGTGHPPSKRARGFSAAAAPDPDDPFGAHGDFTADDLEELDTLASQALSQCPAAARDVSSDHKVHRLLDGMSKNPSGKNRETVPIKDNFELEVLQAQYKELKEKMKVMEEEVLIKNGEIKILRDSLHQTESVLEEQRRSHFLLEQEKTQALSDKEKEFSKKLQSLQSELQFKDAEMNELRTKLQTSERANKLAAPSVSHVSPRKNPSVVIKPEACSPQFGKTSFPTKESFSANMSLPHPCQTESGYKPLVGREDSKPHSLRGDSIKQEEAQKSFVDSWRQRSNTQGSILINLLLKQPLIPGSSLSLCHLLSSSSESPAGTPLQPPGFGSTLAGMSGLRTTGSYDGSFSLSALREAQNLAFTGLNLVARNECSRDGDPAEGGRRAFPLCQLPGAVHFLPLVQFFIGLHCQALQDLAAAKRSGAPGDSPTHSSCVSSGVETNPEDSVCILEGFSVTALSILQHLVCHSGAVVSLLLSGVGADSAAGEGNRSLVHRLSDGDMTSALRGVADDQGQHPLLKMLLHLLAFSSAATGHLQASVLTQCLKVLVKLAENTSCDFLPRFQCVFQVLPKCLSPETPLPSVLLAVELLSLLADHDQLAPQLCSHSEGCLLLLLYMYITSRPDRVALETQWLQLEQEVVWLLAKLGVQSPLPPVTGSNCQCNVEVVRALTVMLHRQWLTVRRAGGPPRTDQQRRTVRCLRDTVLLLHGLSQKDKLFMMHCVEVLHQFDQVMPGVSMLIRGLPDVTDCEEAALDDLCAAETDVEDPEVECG
Test: Enzyme Assay - ATR (Test (a));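 further: kinase activity of bead-bound ATR toward a GST-p53 N-terminal fragment substrate, 1 h at 37 °C, read by chemiluminescence, with inhibitor-free wells as control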
Assay type: biochemical
Conditions: ATR immunoprecipitated from HeLa nuclear extract; 3 μM ATP; average of individual tests; read-out: ATR average IC50
MEASURED PROPERTY: IC50 (nM)
Expressed in nM, but write only the number.

*Q* Tell me the measured IC50 of CC(C)S(=O)(=O)C1(c2cc(N3CCOC[C@H]3C)nc(-c3cccc4[nH]ccc34)n2)CC1 [Example 3.23] , please.
*A* 2.47

*Q* Tell me the measured IC50 of CCS(=O)(=O)C1(c2cc(N3CCOC[C@H]3C)nc(-c3cccc4[nH]ccc34)n2)CC1 [Example 3.20] , please.
*A* 2.5

*Q* Tell me the measured IC50 of C[C@@H]1COCCN1c1cc(C2(S(C)(=O)=O)CCC2)nc(-c2cccc3[nH]ccc23)n1 [Example 3.16] , please.
*A* 1.99

*Q* Tell me the measured IC50 of COc1cc(-c2nc(N3CCOC[C@H]3C)cc(C3(S(C)(=O)=O)CCOCC3)n2)c2cc[nH]c2c1 [Example 3.11] , please.
*A* 1.58

*Q* Tell me the measured IC50 of CS(=O)(=O)C1(c2cc(N3CCOCC3)nc(-c3cccc4[nH]ccc34)n2)CCNCC1 [Example 1.08] , please.
*A* 9.44

*Q* Tell me the measured IC50 of C[C@@H]1COCCN1c1cc(C2(S(C)(=O)=O)CC2)nc(-c2cc(C#N)cc3[nH]ccc23)n1 [Example 3.04] , please.
*A* 35.5

*Q* Tell me the measured IC50 of O=S(=O)(C1CC1)C1(c2cc(N3CCOCC3)nc(-c3cccc4[nH]ccc34)n2)CCOCC1 [Example 1.13] , please.
*A* 58.3

*Q* Tell me the measured IC50 of C[C@@H]1COCCN1c1cc(C2(S(C)(=O)=O)CCNCC2)nc(-c2cccc3[nH]ccc23)n1 [Example 3.15] , please.
*A* 2.55

*Q* Tell me the measured IC50 of C[C@@H]1COCCN1c1cc(C2(S(C)(=O)=O)CCOCC2)nc(-c2cc(F)cc3[nH]ccc23)n1 [Example 3.13] , please.
*A* 1.53

*Q* Tell me the measured IC50 of Cc1cc(-c2nc(N3CCOC[C@H]3C)cc(C3(S(C)(=O)=O)CC3)n2)c2cc[nH]c2c1 [Example 3.02] , please.
*A* 6.67

*Q* Tell me the measured IC50 of CCS(=O)(=O)C1(c2cc(N3CCOC[C@H]3C)nc(-c3cccc4[nH]ccc34)n2)CCNCC1 [Example 3.22] , please.
*A* 8.19

*Q* Tell me the measured IC50 of CCS(=O)(=O)C1(c2cc(N3CCOC[C@H]3C)nc(-c3cccc4[nH]ccc34)n2)CCOCC1 [Example 3.21] , please.
*A* 6.89

*Q* Tell me the measured IC50 of CC(C)S(=O)(=O)C1(c2cc(N3CCOC[C@H]3C)nc(-c3cccc4[nH]ccc34)n2)CCNCC1 [Example 3.25] , please.
*A* 20.6

*Q* Tell me the measured IC50 of C[C@@H]1COCCN1c1cc(C2(S(C)(=O)=O)CCOCC2)nc(-c2cccc3[nH]ccc23)n1 [Example 3.08] , please.
*A* 2.32

*Q* Tell me the measured IC50 of COc1cc(-c2nc(N3CCOC[C@H]3C)cc(C3(S(C)(=O)=O)CC3)n2)c2cc[nH]c2c1 [Example 3.07] , please.
*A* 12.4
